// provenance: patent US6218168A

TESTED ON: serine acetyltransferase
ASSAY: Serine acetyltransferase enzyme activity test with and without L-cysteine (inhibitor constant Ki, specific activity)
Type: biochemical, E. coli
STATED CONDITIONS: Table 2; alleles from chemical mutagenesis; inhibitor L-cysteine
PARAMETER: pKi
In textbook form, pKi equals minus log to base ten of the concentration in mol/L.

Recorded pKi, per entry:
{"MOLECULE": "cysEII: feedback-resistant serine acetyltransferase allele, Gly238->Ser238 (protein, UniProt P0A9D4 1-273, looked up, variant G238S) Serine acetyltransferase: MSCEELEIVWNNIKAEARTLADCEPMLASFYHATLLKHENLGSALSYMLANKLSSPIMPAIAIREVVEEAYAADPEMIASAACDIQAVRTRDPAVDKYSTPLLYLKGFHALQAYRIGHWLWNQGRRALAIFLQNQVSVTFQVDIHPAAKIGRGIMLDHATGIVVGETAVIENDVSILQSVTLGGTGKSGGDRHPKIREGVMIGAGAKILGNIEVGRGAKIGAGSVVLQPVPPHTTAASVPARIVGKPDSDKPSMDMDQHFNGINHTFEYGDGI", "NUMERIC READOUT": 5.00}
{"MOLECULE": "cysEX: mutant Thr167->Ala167 (protein, UniProt P0A9D4 1-273, looked up, variant T167A) Serine acetyltransferase: MSCEELEIVWNNIKAEARTLADCEPMLASFYHATLLKHENLGSALSYMLANKLSSPIMPAIAIREVVEEAYAADPEMIASAACDIQAVRTRDPAVDKYSTPLLYLKGFHALQAYRIGHWLWNQGRRALAIFLQNQVSVTFQVDIHPAAKIGRGIMLDHATGIVVGEAAVIENDVSILQSVTLGGTGKSGGDRHPKIREGVMIGAGAKILGNIEVGRGAKIGAGSVVLQPVPPHTTAAGVPARIVGKPDSDKPSMDMDQHFNGINHTFEYGDGI", "NUMERIC READOUT": 4.30}

// next item, pKi requested
Which pKi value is on record for cysEXII: triple mutant Lys97->Gln97, Gly238->Ser238, Phe267->Leu267 (protein, UniProt P0A9D4 1-273, looked up, variant K97Q G238S F267L) Serine acetyltransferase: MSCEELEIVWNNIKAEARTLADCEPMLASFYHATLLKHENLGSALSYMLANKLSSPIMPAIAIREVVEEAYAADPEMIASAACDIQAVRTRDPAVDQYSTPLLYLKGFHALQAYRIGHWLWNQGRRALAIFLQNQVSVTFQVDIHPAAKIGRGIMLDHATGIVVGETAVIENDVSILQSVTLGGTGKSGGDRHPKIREGVMIGAGAKILGNIEVGRGAKIGAGSVVLQPVPPHTTAASVPARIVGKPDSDKPSMDMDQHFNGINHTLEYGDGI ? 4.40
